- Tested on: 4T1
- procedure_text: Cytotoxicity against mouse 4T1 cells assessed as reduction in cell viability after 48 hrs by MTT assay
- Assay type: functional, cell-based
- conditions: 4T1, 48 h
pIC50: −log10 of the molar value.
Assignment: determine reported pIC50 for the given compounds.

query: Answer with the recorded pIC50 for the compound listed here: `COc1cc(OC)c(OC)cc1/C=C/C(=O)/C=C/c1cc2ccccc2nc1Oc1cccc(Cl)c1`
result: < 5.00

query: Please look at this compound and report its pIC50: `COc1ccc(/C=C/C(=O)/C=C/c2cc3ccccc3nc2Oc2ccccc2)cc1OC`
result: < 5.00

query: Identify the reported pIC50 for the following entry. `COc1cc(OC)c(/C=C/C(=O)/C=C/c2cc3ccccc3nc2Oc2ccccc2)c(OC)c1`
result: < 5.00

query: // Input: `COc1cc(OC)c(OC)cc1/C=C/C(=O)/C=C/c1cc2ccccc2nc1Cl` . Output its pIC50 only.
result: 5.74

query: Please give measured pIC50 of the following entry: `COc1ccc(OC)c(/C=C/C(=O)/C=C/c2cc3ccccc3nc2Oc2cccc(Cl)c2)c1`
result: < 5.00

query: Check the records and state pIC50 for `COc1cc(OC)c(/C=C/C(=O)/C=C/c2cc3ccccc3nc2Oc2ccc(Br)cc2)c(OC)c1`
result: < 5.00

query: Return the recorded pIC50 value; entry: `COc1cc(OC)c(/C=C/C(=O)/C=C/c2cc3ccccc3nc2Oc2cccc(Cl)c2)c(OC)c1`
result: < 5.00

query: Answer with the recorded pIC50 of `COc1ccc(/C=C/C(=O)/C=C/c2cc3ccccc3nc2Oc2ccc(Br)cc2)cc1OC` only.
result: < 5.00

query: Read off the recorded pIC50 for `COc1ccc(/C=C/C(=O)/C=C/c2cc3ccccc3nc2Cl)cc1`
result: < 5.00
